testedSystem: Hexose transporter 1 (Plasmodium falciparum)
protocolNotes: ST_JUDE_LEISH: Cytotoxicity at 2uM final concentration against transgenic Leishmania Mexicana promastigotes LmPfHT that are glucose transport deficient and complemented with the Plasmodium falciparum hexose transporter. Activity is measured by DNA content using SYBR green in vitro
Assay type: functional
parameter: inhibition (%)
# unit: % | format: bare number

Qu. Report inhibition for `COc1cc(Cc2cnc(N)nc2N)c2c(c1OC)OC(C)(C)C=C2`
Ans. 5.13

Qu. Output inhibition of `Cc1cc(=NN=Cc2cccc(F)c2)c2cc(F)ccc2[nH]1`
Ans. 9.63

Qu. Supply recorded inhibition for `Cc1cc(NC(=O)Nc2ccc3nc(C)oc3c2)c2cc(Cl)ccc2n1` here.
Ans. 2.12

Qu. Look up and report measured inhibition for this entry: `O=C(Nc1cccc(-c2nn3ccccc3c2-c2ccnc(Nc3ccc(Cc4ccncc4)cc3)n2)c1)c1c(F)cccc1F`
Ans. 17.3

Qu. Give me measured inhibition, please, for this compound: `COc1ccc2c(Nc3ccc(N4CCN(C)CC4)cc3)cc(C)nc2c1`
Ans. 6.21

Qu. Please give measured inhibition of the following entry: `COc1ccc2c(NN=Cc3ccccc3F)ccnc2c1`
Ans. 2.8

Qu. Note inhibition for the compound shown: `Clc1cccc(C=NN=c2cc[nH]c3ccccc23)c1`
Ans. 2.56

Qu. Identify the reported inhibition for the following entry. CCCC1N=C(N)N=C(N)N1c1ccc(Cl)cc1 (stereo unspecified)
Ans. 2.02

Qu. Quote inhibition reported for `Cc1ccc2nc(C)n(C3CCN(C(=O)C4(c5ccccc5)CC4)CC3)c2c1` please.
Ans. 6.02

Qu. Specify measured inhibition for `COc1ccc2ccc(OC)c(CNCCCCCCNCc3c(OC)ccc4ccc(OC)cc34)c2c1` .
Ans. 9.06

Qu. Supply reported inhibition belonging to this compound: COc1cccc2cc(C(=O)N[C@@H](CC(C)C)C(=O)NC(/C=N/NC(=O)c3ccccc3)CCc3ccccc3)oc12 (stereo partly specified)
Ans. 2.83

Qu. Quote inhibition reported for `CC(C)(C)c1ccc(S(=O)(=O)Nc2cc(Cl)ccc2Cn2ccc(N3CCNCC3)nc2=O)cc1` please.
Ans. -3.39

Qu. Entry `COc1ccc2nc(C)cc(N/N=C/C=C/c3ccccc3)c2c1` needs its inhibition filled in; supply it.
Ans. 7.46

Qu. Answer with reported inhibition of `COc1c(CNCCCCCCNCc2c(OC)c(OC)c3ccccc3c2OC)c(OC)c2ccccc2c1OC`
Ans. 11.8

Qu. Report inhibition for `COc1cc(Cc2cnc(N)nc2N)cc(OCCCc2cc(OCc3ccccc3)no2)c1OC`
Ans. 8.52

Qu. Supply inhibition value. Item: `COc1ccc(Cl)cc1NC(=O)Nc1ccnc2ccccc12`
Ans. 13.4

Qu. Look up inhibition of `Fc1ccccc1-c1cc(Nc2ccncc2)nc(-c2cccnc2)n1` and report it.
Ans. 1.28

Qu. Item `O=C(/C=C/c1ccc(Cl)c(Cl)c1)NCCCCCN1CCC(CCNC(=O)c2snnc2-c2ccccc2)CC1` : provide inhibition
Ans. 4.7

Qu. Tell me its inhibition given `CCOc1cc(Cc2cnc(N)nc2N)cc(Br)c1OC` as the entry.
Ans. 2.73

Qu. Answer with the recorded inhibition for the compound listed here: `CN1CCC[C@H]1COc1ccc(CN2CC[C@H](NC(=O)c3ccc(Cl)c(Cl)c3)C2)cc1Br`
Ans. 2.26

Qu. Note inhibition for the compound shown: N#CC(NC(=O)C=Cc1ccccc1)c1ccccc1 (stereo unspecified)
Ans. -2.81

----------
testedSystem: Solute carrier family 2, facilitated glucose transporter member 1 (Homo sapiens) (UniProt P11166)
Sequence (P11166 whole entry): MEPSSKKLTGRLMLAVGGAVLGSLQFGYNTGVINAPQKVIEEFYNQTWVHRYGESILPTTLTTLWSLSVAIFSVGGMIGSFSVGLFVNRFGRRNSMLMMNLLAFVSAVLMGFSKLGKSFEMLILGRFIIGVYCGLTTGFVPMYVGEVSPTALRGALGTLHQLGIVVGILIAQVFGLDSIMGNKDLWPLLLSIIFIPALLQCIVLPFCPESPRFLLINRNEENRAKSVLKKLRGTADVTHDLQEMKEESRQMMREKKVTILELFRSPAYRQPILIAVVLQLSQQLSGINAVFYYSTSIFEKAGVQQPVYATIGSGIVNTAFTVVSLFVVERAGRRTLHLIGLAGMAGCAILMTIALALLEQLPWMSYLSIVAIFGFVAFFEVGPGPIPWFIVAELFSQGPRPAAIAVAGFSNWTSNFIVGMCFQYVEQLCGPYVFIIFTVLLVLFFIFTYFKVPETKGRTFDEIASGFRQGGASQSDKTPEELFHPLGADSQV
protocolNotes: ST_JUDE_LEISH: Cytotoxicity at 2uM final concentration against transgenic Leishmania Mexicana promastigotes LmGLUT1 that are glucose transport deficient and complemented with the human glucose transporter GLUT1. Activity is measured by DNA content using SYBR green in vitro
Type: functional
Provide the recorded inhibition for the entries that follow.
Kindly write the number and append the unit.

Qu. Tell me measured inhibition for `CN(Cc1ccc(C#N)cc1)C1CCN(c2cc(NC(=O)c3cccc(F)c3)ccn2)CC1` please.
Ans. -1.86%

Qu. Note inhibition for the compound shown: CC1CCCC(Nc2noc(-c3sccc3Br)n2)C1 (centres undefined)
Ans. -0.93%

Qu. Consider the compound `COc1ccc2[nH]ccc(=NN=Cc3cccc(F)c3)c2c1` and give its recorded inhibition.
Ans. 1.01%

Qu. State its inhibition: `COc1ccc(N2CCN(CCCCNC(=O)c3ccc(NC(=O)c4ccc(Cl)cc4)cc3)CC2)c(C)c1`
Ans. 10.4%

Qu. Please report inhibition for the following compound: `c1cc(-c2cc3ccc(C4=NCCN4)cc3[nH]2)ccc1C1=NCCN1`
Ans. 1.68%

Qu. Provide inhibition value for the following compound: `CC(=O)N(Cc1nc(-c2cc(C(F)(F)F)cc(C(F)(F)F)c2)cs1)c1c(C)cccc1C`
Ans. 4.36%

Qu. Tell me inhibition reported for `CN(C)c1cc(NC(=O)Nc2ccc(SC(F)(F)F)cc2)c2ccccc2n1`
Ans. -0.23%

Qu. Answer with the recorded inhibition for the compound listed here: `CCOc1c(CCNCCCCNCCc2ccc3ccccc3c2OCC)ccc2ccccc12`
Ans. 111%

Qu. Quote inhibition reported for `O=C(CSc1nc2ccc([N+](=O)[O-])cc2s1)Nc1ccccc1-c1ccccc1` please.
Ans. -0.42%

Qu. Kindly indicate its recorded inhibition. Item: COc1cc(Nc2nccc(N3CCC(NC(=O)c4cccc(NC(C)=O)c4)C3)n2)cc(OC)c1OC (centres undefined)
Ans. 0.31%

Qu. Report inhibition for `CCOc1cc(Cc2cnc(N)nc2N)cc(OCC)c1-n1cccc1`
Ans. 5.67%

Qu. Give the reported inhibition for this compound. `O=c1cc(NCCCNCc2ccc(Cl)c(Cl)c2)[nH]c2ccc(Oc3ccccc3)cc12`
Ans. -1.41%

Qu. Identify the reported inhibition for the following entry. `O=C(Nc1ccccc1)Nc1cccc(-c2cc(CNCCc3ccccc3)sc2-c2ccncc2)c1`
Ans. -0.01%

Qu. Please give measured inhibition of the following entry: `Cc1cc(N/N=C/c2ccccc2[N+](=O)[O-])c2ccc(F)cc2n1`
Ans. 2.1%

Qu. Return inhibition for the following compound: `O=C(/C=C/c1cc(C(F)(F)F)ccc1F)NCCCCCN1CCC(c2c[nH]c3ccccc23)CC1`
Ans. 0.77%

Qu. Find the measured inhibition of CC1Cc2ccccc2N1S(=O)(=O)c1cccc(C(=O)Nc2nc(-c3ccccn3)cs2)c1 (centres undefined) and report it.
Ans. 13.8%

Qu. Dear colleague, please send me the reported inhibition for `CC(C)Sc1nc2c(c(=O)n1CCc1ccccc1)C1(CCCCC1)Cc1ccccc1-2` when you can.
Ans. -1.26%

Qu. Annotate the compound `CCc1ccc(Cc2cnc3nc(N)nc(N)c3c2C)cc1CC` with its measured inhibition.
Ans. -1.77%

Qu. Provide measured inhibition value, entry: `CCNc1cc(C(=O)N[C@@H](Cc2ccccc2)[C@H](O)CNCCc2cccc(C(F)(F)F)c2)cc(N2CCCC2=O)c1`
Ans. 1.16%

Qu. Give inhibition for `Cc1ccc(Nc2nc(N/N=C/c3ccccc3[N+](=O)[O-])nc(Nc3ccc([N+](=O)[O-])cc3)n2)cc1C`
Ans. 12.9%

Qu. Return inhibition for the following compound: CN1CCCC1CCCOC(=O)c1ccc(N)cc1 (centres undefined)
Ans. 3.24%

Qu. Return the recorded inhibition value; entry: `Cc1ccc(-c2ccn(Cc3ccc(OCc4ccccc4)cc3)n2)cn1.Cc1ccc(-c2ccnn2Cc2ccc(OCc3ccccc3)cc2)cn1`
Ans. 0.13%

Qu. Give inhibition for the following compound: `O=C(NCC1CCCCC1)c1cc(=O)c2ccccc2o1`
Ans. 8.02%

Qu. Check the records and state inhibition for `COc1ccc(Cn2ccc3c4c(N)nc(N)nc4ccc32)cc1`
Ans. 97.9%

Qu. Answer with reported inhibition of `CCCCCCOc1ccc2ccccc2c1CNCCCCCCNCc1c(OCCCCCC)ccc2ccccc12`
Ans. 16.8%

Qu. Consider the compound `CC1CCN(Cc2c(O)ccc3c(CN4CCC(C)CC4)c(O)ccc23)CC1` . State its measured inhibition.
Ans. 4.79%

Qu. Answer with the recorded inhibition of `COc1cc(OCCCCCCON2C(=N)N=C(N)NC2(C)C)cc(OC)c1OC` only.
Ans. 7.66%

Qu. Specify reported inhibition for the compound shown: `COc1ccccc1C(=O)N1CCN(Cc2cccs2)CC1`
Ans. 7.76%

Qu. Identify measured inhibition corresponding to `Cc1cc(C)cc(NC(=S)NCCCCN2CCN(c3cccc(Cl)c3)CC2)c1`
Ans. -0.5%

Qu. // fetch inhibition given entry `CCNc1cc(C(=O)N[C@@H](Cc2ccccc2)[C@H](O)CNCc2cc(OC)cc(OC)c2)cc(N2CCCS2(=O)=O)c1`
Ans. 1.6%

Qu. Using the record for `O=C(NCc1cccs1)[C@H](Cc1ccccc1)Nc1ccnc(NCCc2ccc(F)cc2)n1` , state its measured inhibition.
Ans. 11.2%

Qu. Tell us which inhibition value is on record for `O=C(NCCc1ccccc1)N(Cc1ccccc1-c1cccc(CNCc2ccc3c(c2)OCO3)c1)C1CCN(Cc2ccccc2)CC1`
Ans. 3.72%

Qu. // Input: N#Cc1cccc(NC(=O)C2=C(CCc3ccc4c(c3)OCO4)NC(=O)NC2c2cccc(C#N)c2)c1 (centres undefined) . Output its inhibition only.
Ans. -0.43%

Qu. Return inhibition for the following compound: `N#Cc1ccc(N[C@@H](CC2CCCCC2)C(=O)NCc2cc(Cl)cc(Cl)c2)c2ccccc12`
Ans. 2.42%

Qu. Fill in reported inhibition for this entry: CS(=O)(=O)c1ccc2c(c1)CCN(CCC1CCC(NC(=O)C(=Cc3cccc(C#N)c3)c3ccc(-c4ccccc4)cc3)CC1)CC2 (centres undefined)
Ans. 1.14%

Qu. Item `O=C(NCc1cccc(F)c1)Nc1cccc(-c2cccc(-c3nc4ccccc4[nH]3)c2)c1` : provide inhibition
Ans. 7.33%

Qu. Tell me inhibition reported for Cn1c(NC(=O)C2CCC(CNC(=O)c3ccc(O)c(-c4cccc([N+](=O)[O-])c4)c3)CC2)nc2ccccc21 (centres undefined)
Ans. 1.57%

Qu. Let me know recorded inhibition for `CC(C)CNCc1cccc(-c2ccc(CN(CCCN3CCN(C)CC3)C(=O)CCC3CCCC3)cc2)c1` , thanks.
Ans. 38.9%

Qu. Quickly give me recorded inhibition for `COc1cccc(OC)c1OCCCON1C(=N)N=C(N)NC1(C)C`
Ans. 1.91%
